Reference for the values: ChEMBL document CHEMBL4229433

# system_name: Urease subunit alpha/Urease subunit beta (Helicobacter pylori (strain ATCC 700392 / 26695) (Campylobacterpylori))
# Sequence (P69996 whole entry): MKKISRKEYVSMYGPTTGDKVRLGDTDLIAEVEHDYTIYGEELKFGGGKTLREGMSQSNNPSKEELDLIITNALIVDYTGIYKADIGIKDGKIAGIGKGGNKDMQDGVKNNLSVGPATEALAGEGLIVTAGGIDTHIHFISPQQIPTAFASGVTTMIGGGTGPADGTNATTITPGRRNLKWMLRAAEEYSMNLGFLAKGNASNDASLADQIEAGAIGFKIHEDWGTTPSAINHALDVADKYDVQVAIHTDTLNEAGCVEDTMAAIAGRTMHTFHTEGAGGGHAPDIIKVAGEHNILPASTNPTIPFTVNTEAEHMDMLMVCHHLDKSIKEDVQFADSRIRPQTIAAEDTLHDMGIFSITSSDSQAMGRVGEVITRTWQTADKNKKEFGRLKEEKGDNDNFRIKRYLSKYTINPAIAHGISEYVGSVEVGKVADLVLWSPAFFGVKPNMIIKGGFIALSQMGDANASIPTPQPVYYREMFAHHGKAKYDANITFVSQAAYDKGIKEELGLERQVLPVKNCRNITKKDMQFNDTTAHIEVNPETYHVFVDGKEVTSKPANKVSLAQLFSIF
# Sequence (P14916 whole entry, further chain): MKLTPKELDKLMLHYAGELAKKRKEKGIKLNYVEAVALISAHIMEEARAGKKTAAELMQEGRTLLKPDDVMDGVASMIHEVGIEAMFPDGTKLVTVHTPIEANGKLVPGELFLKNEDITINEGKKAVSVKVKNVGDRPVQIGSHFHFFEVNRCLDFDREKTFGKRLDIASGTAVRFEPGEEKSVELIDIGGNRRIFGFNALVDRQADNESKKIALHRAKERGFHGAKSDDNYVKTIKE
# experimental_protocol: Inhibition of Helicobacter pylori ATCC 43504 urease assessed as reduction in ammonia production using urea as substrate preincubated for 1.5 hrs under cell free condition by indophenol method
# Type: protein-complex assay, Helicobacter pylori NCTC 11637 = CCUG 17874 = ATCC 43504
measurement_type: pIC50
// pIC50 is dimensionless: -log10 of concentration (M)

Observe how each entry below is paired with its result.
>  <structure_notation>
O=C(CCOc1cc(Cl)ccc1Cl)NO

>  <pIC50>
4.88

$$$$
>  <structure_notation>
O=C(COc1cccc([N+](=O)[O-])c1)NO

>  <pIC50>
4.02

$$$$

input: Given O=C(CCOc1ccc(F)cc1)NO , state its recorded pIC50.
output: 5.95

input: Recorded pIC50 for O=C(CCOc1ccc(Cl)cc1)NO , please?
output: 6.36

input: Please report the recorded pIC50 for O=C(CCOc1ccc(Cl)c(Cl)c1)NO .
output: 7.21

input: For the compound shown here, O=C(CCOc1ccccc1)NO , give the reported pIC50.
output: 5.38

input: Requested field: pIC50. Item: Cc1cccc(OCCC(=O)NO)c1
output: 5.47

input: Fill in: pIC50 of COc1ccc(OCC(=O)NO)cc1 is ___
output: 4.31

input: Quick one: pIC50 for O=C(COc1ccccc1)NO ?
output: 3.88
